Taken from patent US20220177583A1.

Target: T1, human CLDN6, endogenously expressed on cancer cell lines (human, UniProt P56747 1-220)
T1 construct: also called Endogenous CLDN6+; CLDN6 on ARK2, OVCA429, UMUC4 cells
T1 sequence: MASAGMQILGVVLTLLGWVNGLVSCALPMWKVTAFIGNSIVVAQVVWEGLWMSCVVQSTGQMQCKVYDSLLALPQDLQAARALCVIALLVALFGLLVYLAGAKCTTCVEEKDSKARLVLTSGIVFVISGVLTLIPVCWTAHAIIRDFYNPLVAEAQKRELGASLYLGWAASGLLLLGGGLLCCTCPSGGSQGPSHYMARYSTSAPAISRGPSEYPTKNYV
Assay: FACS, ARK2 cells, 1.5 ug Ab

BINDER	FACS signal
AB3-4 (antibody, V domains shown, Humanized; full-length IgG; also called humanized AB 3-4) VH: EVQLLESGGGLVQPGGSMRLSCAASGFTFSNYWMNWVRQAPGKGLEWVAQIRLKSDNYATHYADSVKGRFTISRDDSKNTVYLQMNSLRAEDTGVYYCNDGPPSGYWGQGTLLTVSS VL: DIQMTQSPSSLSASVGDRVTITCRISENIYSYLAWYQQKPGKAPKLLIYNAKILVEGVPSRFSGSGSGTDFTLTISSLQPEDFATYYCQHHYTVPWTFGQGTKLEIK	1460
AB11-3 (antibody, V domains shown, Humanized; also called humanized AB 11-3) VH: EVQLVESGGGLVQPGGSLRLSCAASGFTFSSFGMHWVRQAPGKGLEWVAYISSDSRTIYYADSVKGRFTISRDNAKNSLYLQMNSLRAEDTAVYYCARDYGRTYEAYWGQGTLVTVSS VL: DIVLTQSPDSLAVSLGERATINCRASKSVSTSGYSYIHWYQQKPGQPPKLLIYLASNLESGVPDRFSGSGSGTDFTLTISSVQAEDVAVYYCQHSRELPLTFGQGTKLELK	1540
AB4-11 (antibody, V domains shown, Humanized; full-length IgG; see note of AB4-8; also called humanized AB 4-11) VH: QVQLVQSGAEVKKPGASVKMSCKASGYTFTSYTMHWIRQAPGQGLEWIGYINPSSTYTHYIKKFKDRATLTADKSTSTAYMELSSLRSEDTAVYYCSRGELGGFAYWGQGTLVTVSS VL: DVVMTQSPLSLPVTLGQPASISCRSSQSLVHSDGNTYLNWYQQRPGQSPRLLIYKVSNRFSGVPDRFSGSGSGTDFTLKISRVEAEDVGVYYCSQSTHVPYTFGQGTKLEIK	9170
